Target: Squalene monooxygenase (Rattus norvegicus, UniProt P52020)
Sequence (P52020 whole entry): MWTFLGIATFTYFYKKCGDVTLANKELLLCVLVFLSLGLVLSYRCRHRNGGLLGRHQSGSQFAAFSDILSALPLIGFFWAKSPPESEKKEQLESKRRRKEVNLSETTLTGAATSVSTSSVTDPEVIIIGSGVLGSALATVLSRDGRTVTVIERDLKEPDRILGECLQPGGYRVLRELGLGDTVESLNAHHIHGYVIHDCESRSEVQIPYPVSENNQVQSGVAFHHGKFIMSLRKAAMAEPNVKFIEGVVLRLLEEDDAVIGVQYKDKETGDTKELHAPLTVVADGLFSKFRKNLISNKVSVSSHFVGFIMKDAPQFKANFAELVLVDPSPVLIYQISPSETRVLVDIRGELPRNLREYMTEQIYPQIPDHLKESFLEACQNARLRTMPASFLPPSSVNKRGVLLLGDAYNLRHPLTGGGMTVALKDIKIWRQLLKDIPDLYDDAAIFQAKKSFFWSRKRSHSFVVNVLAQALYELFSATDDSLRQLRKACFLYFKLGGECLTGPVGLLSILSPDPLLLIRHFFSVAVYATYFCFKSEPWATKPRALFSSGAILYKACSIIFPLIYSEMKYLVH
metric: IC50 (nM)

INSERT INTO assay_data (mol, metric, experimental_value) VALUES
  ('CNCCC/C(C)=C/CC/C(C)=C/CC/C=C(\C)CC/C=C(\C)CCCNCCCCCCN', 'IC50', 1000);
